For reference, ID50 measured on Adrenergic receptor alpha-2 (Rattus norvegicus) (UniProt P22086+P19328+P22909):
measurement.kind: ID50

> print(dat)
                                    molecule  value.observed
 1  c1ccc2c(c1)OCC(C1=NCCN1)O2 (stereo unspecified)       1.2 mg/kg
 2  CC(C)CS(=O)(=O)N1CCC[C@@H]2CN3CCc4ccccc4[C@@H]3C[C@@H]21      0.85 mg/kg
 3  O=S(=O)(CCO)N1CCC[C@@H]2CN3CCc4ccccc4[C@@H]3C[C@@H]21      1.34 mg/kg
 4  COc1ccc2c(c1)CCN1C[C@H]3CCCN(S(C)(=O)=O)[C@H]3C[C@@H]21      0.21 mg/kg
 5  COc1ccc2c(c1)CCN1C[C@H]3CCCN(S(C)(=O)=O)[C@@H]3C[C@@H]21     0.095 mg/kg
 6  CS(=O)(=O)N1CCC[C@@H]2CN3CCc4cc5c(cc4[C@@H]3C[C@@H]21)OCO5      0.76 mg/kg
 7  COc1ccc2c(c1)CCN1C[C@@H]3CCCN(S(C)(=O)=O)[C@@H]3C[C@H]21      > 10 mg/kg
 8  COCCS(=O)(=O)N1CCC[C@@H]2CN3CCc4cc(OC)ccc4[C@@H]3C[C@@H]21       0.3 mg/kg
 9  COCCS(=O)(=O)N1CCC[C@@H]2CN3CCc4ccccc4[C@@H]3C[C@@H]21      0.24 mg/kg
10  CC(C)CS(=O)(=O)N1CCC[C@@H]2CN3CCc4cc5c(cc4[C@@H]3C[C@@H]21)OCO5      0.44 mg/kg
11  O=S(=O)(c1ccccc1)N1CCC[C@@H]2CN3CCc4ccccc4[C@@H]3C[C@@H]21      > 10 mg/kg
12  CCCS(=O)(=O)N1CCC[C@@H]2CN3CCc4ccccc4[C@@H]3C[C@@H]21       1.4 mg/kg
13  COc1ccc2c(c1)CCN1C[C@H]3CCCN(S(=O)(=O)CC(C)C)[C@H]3C[C@@H]21      0.41 mg/kg
14  COc1ccc2c(c1)CCN1C[C@H]3CCCN(S(=O)(=O)N(C)C)[C@@H]3C[C@@H]21      0.17 mg/kg
15  COc1cc2c(cc1OC)[C@@H]1C[C@H]3[C@H](CCCN3S(C)(=O)=O)CN1CC2       1.6 mg/kg
16  COc1ccc(S(=O)(=O)N2CCC[C@@H]3CN4CCc5ccccc5[C@@H]4C[C@@H]32)cc1       > 3 mg/kg
17  CS(=O)(=O)N1CCC[C@@H]2CN3CCc4cc5c(cc4[C@@H]3C[C@@H]21)OCCO5       1.4 mg/kg
18  COC(=O)[C@@H]1[C@H]2C[C@H]3c4[nH]c5ccccc5c4CCN3C[C@@H]2CC[C@@H]1O       2.8 mg/kg
19  CCCCS(=O)(=O)N1CCC[C@@H]2CN3CCc4ccccc4[C@@H]3C[C@@H]21       0.9 mg/kg
20  CCS(=O)(=O)N1CCC[C@@H]2CN3CCc4ccccc4[C@@H]3C[C@@H]21       1.1 mg/kg
21  CS(=O)(=O)N1CCC[C@@H]2CN3CCc4ccccc4[C@@H]3C[C@@H]21       1.2 mg/kg

The reported measurements were obtained from ChEMBL document CHEMBL1125249.
